Test system: A549
Measurement description: NCI tumour cell line growth inhibition, 48 h
Activity calls are given as the source filed them. Cut-off read from the data, not from the text of the source: active = GI50 up to about 1.1 µM and inactive = higher.
Pick from true (1) (active), false (0) (inactive) when you respond.

CN[C@@H](C)[C@H](OP(=O)(O)OC1[C@@H](O)[C@H](O)C(O)[C@H](O)[C@@H]1O)c1ccccc1 (some centres not stated): false (0)
COC(=O)C1Cc2c([nH]c3ccccc23)[C@H](CC(C)C)N1 (some centres not stated): false (0)
CN1C(=O)C(CC=O)(C(C)(C)C)c2ccccc21 (configuration not stated): false (0)
N#Cc1c(SCc2ccccc2)nc(-c2ccccc2)[nH]c1=S: false (0)

Hi team, can someone confirm the assay call for "CN(C)CCNc1ccc([N+](=O)[O-])c2nc3ccccc3c(N)c12" ?
true (1)

Just curious, what result did CCC(CO)COC(=O)/C=C/C(=O)OCC(CC)CO (configuration not stated) get here?
false (0)

Please share the test call associated with Cc1cccc(C)c1NC(=O)CCCC(=O)C(C#N)c1ccc(Cl)cc1 (configuration not stated) .
false (0)

Returns: the outcome recorded for CC(C)(C)OC(=O)NCC(=O)NC1c2ccsc2/C(=N/O)[C@H]1O (some centres not stated) in this assay.
false (0)

I'd appreciate the recorded outcome for "Cn1nc2ccc3nccc(NCCNCCO)c3c2n1" from this test.
false (0)
